biological target: DYRK2 (human) (UniProt Q92630); assay: Caliper, Mobility shift assay off-chip; conditions: compound 0.02 µM
Sequence (Q92630 whole entry, looked up): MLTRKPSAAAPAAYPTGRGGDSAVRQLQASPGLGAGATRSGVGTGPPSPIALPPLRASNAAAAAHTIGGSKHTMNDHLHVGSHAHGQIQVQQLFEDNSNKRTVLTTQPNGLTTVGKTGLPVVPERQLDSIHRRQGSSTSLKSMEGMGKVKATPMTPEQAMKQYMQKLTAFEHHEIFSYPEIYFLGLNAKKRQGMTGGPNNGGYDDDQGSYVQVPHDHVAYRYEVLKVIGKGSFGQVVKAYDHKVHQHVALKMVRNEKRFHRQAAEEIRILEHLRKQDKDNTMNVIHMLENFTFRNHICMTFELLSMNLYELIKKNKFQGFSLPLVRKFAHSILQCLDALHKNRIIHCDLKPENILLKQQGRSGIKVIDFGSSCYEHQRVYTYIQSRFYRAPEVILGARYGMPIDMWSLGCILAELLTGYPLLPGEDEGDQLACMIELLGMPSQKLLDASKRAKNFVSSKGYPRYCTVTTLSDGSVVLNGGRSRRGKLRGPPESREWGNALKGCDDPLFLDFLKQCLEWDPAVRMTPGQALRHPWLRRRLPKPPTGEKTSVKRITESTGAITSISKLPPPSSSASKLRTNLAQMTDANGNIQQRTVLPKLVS
quantity_kind: inhibition (%)
Your answer should be a plain number; it is taken to be in %.

As a guide, the following entries are already answered.
{"compound_smiles": "COc1cc2c(Oc3ccc4[nH]c(C)cc4c3F)ncnc2cc1OCCCN1CCCC1", "inhibition, %": 13.4}
{"compound_smiles": "CNC(=O)c1ccccc1Sc1ccc2c(/C=C/c3ccccn3)n[nH]c2c1", "inhibition, %": -6.4}
{"compound_smiles": "Cc1ccc(Nc2nccc(N(C)c3ccc4c(C)n(C)nc4c3)n2)cc1S(N)(=O)=O", "inhibition, %": 0.6}

Here is another molecule to look at.
Sample "CNC(=O)c1cc(Oc2ccc(NC(=O)Nc3ccc(Cl)c(C(F)(F)F)c3)cc2)ccn1" — what was its inhibition?
-7.8

* * *

biological target: UniProt:P78368; experiment: Caliper, Mobility shift assay off-chip; conditions: compound 0.02 µM
Sequence (P78368 whole entry, looked up): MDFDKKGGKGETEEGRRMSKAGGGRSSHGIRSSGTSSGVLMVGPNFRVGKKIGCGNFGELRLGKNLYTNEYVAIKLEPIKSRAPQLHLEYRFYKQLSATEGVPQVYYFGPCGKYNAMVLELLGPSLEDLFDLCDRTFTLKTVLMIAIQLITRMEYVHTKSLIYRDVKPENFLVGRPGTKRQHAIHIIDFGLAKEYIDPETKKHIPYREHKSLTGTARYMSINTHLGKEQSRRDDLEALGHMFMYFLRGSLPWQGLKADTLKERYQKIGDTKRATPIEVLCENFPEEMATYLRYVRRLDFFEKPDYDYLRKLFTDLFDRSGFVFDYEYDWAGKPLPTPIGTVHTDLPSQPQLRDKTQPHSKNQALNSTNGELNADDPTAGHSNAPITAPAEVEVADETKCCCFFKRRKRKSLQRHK
quantity_kind: inhibition (%)
Your answer should be a plain number; it is taken to be in %.

As a guide, the following entries are already answered.
{"compound_smiles": "CNC(=O)c1cc(Oc2ccc(NC(=O)Nc3ccc(Cl)c(C(F)(F)F)c3)cc2)ccn1", "quantity_kind": "inhibition", "test_result": -18.7}
{"compound_smiles": "CNC(=O)c1ccccc1Sc1ccc2c(/C=C/c3ccccn3)n[nH]c2c1", "quantity_kind": "inhibition", "test_result": -1.6}
{"compound_smiles": "Cc1ccc(Nc2nccc(N(C)c3ccc4c(C)n(C)nc4c3)n2)cc1S(N)(=O)=O", "quantity_kind": "inhibition", "test_result": 1.7}

Sample "COc1cc2c(Oc3ccc4[nH]c(C)cc4c3F)ncnc2cc1OCCCN1CCCC1" — what was its inhibition?
-0.7

* * *

target: UniProt Q5VT25; experiment: Caliper, Mobility shift assay off-chip; conditions: compound 0.02 µM
Sequence (Q5VT25 whole entry, looked up): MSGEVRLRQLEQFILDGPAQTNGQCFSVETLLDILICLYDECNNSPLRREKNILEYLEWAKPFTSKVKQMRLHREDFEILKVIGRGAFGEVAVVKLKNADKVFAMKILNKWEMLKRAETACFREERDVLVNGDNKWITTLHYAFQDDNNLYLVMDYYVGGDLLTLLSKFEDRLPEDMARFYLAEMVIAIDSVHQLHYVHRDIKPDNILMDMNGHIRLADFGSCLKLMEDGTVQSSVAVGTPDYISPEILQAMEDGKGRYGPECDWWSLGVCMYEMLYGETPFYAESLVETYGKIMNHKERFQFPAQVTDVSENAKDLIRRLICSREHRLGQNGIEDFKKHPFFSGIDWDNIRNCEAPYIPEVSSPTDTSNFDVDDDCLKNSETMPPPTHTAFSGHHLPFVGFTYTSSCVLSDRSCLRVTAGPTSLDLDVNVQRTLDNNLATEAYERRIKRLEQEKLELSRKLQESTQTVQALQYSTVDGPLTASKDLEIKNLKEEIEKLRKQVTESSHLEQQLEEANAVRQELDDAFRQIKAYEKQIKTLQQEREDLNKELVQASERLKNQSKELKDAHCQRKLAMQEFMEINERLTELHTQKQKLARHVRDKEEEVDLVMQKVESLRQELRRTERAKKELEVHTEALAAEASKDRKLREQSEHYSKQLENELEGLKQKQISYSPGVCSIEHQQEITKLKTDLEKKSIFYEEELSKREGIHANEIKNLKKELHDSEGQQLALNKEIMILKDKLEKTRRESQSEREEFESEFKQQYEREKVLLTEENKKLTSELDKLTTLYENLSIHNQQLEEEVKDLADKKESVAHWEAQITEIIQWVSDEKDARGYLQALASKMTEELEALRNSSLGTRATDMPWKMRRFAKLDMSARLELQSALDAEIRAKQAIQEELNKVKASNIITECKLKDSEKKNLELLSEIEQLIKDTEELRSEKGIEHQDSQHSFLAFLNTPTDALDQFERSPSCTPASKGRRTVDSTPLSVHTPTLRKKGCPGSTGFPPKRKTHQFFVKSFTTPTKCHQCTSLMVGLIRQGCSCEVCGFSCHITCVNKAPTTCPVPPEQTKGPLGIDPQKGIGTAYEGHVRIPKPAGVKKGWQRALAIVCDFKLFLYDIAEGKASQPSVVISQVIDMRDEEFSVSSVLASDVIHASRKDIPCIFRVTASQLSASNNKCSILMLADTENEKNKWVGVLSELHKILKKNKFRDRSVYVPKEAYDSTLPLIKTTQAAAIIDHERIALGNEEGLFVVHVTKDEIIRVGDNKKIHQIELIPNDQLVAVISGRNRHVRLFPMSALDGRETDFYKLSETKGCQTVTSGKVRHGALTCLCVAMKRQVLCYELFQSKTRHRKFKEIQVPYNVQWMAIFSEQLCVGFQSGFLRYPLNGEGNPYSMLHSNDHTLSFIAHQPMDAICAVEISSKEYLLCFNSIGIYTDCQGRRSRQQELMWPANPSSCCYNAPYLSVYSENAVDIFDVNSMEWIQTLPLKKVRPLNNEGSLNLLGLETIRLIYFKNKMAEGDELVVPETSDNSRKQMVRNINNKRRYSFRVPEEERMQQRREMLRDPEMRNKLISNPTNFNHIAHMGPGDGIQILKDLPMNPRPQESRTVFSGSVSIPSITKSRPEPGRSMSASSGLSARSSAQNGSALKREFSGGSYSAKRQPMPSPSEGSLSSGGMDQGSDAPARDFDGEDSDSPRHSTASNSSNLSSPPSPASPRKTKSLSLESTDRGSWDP
Form field: inhibition (one value per entry).
Your answer should be a plain number; it is taken to be in %.

As a guide, the following entries are already answered.
{"compound_smiles": "COc1cc2c(Oc3ccc4[nH]c(C)cc4c3F)ncnc2cc1OCCCN1CCCC1", "inhibition, %": 3.4}
{"compound_smiles": "CNC(=O)c1ccccc1Sc1ccc2c(/C=C/c3ccccn3)n[nH]c2c1", "inhibition, %": 10.2}

Sample "Cc1ccc(Nc2nccc(N(C)c3ccc4c(C)n(C)nc4c3)n2)cc1S(N)(=O)=O" — what was its inhibition?
13.3

Sample "CNC(=O)c1cc(Oc2ccc(NC(=O)Nc3ccc(Cl)c(C(F)(F)F)c3)cc2)ccn1" — what was its inhibition?
-0.8

* * *

molecular target: CAMK2B (human) (UniProt Q13554); assay: Caliper, Mobility shift assay off-chip; conditions: compound 0.2 µM
Sequence (Q13554 whole entry, looked up): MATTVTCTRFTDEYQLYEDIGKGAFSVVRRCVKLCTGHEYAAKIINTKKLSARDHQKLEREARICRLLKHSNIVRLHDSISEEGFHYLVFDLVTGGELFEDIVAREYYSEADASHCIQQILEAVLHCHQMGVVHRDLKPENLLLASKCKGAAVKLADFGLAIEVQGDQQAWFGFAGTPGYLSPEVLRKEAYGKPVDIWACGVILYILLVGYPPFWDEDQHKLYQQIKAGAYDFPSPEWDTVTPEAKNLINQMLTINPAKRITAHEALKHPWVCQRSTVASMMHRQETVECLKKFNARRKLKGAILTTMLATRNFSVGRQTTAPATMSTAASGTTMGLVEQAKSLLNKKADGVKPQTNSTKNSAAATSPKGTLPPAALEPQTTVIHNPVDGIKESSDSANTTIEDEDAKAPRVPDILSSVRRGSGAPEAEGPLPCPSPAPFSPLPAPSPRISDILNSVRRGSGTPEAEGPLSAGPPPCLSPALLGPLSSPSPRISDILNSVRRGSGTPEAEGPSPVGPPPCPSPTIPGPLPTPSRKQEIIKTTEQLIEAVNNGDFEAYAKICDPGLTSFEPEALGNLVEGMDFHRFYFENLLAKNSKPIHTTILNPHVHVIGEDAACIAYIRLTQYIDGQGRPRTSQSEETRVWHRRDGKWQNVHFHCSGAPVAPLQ
quantity_kind: inhibition (%)
Your answer should be a plain number; it is taken to be in %.

As a guide, the following entries are already answered.
{"compound_smiles": "COc1cc2c(Oc3ccc4[nH]c(C)cc4c3F)ncnc2cc1OCCCN1CCCC1", "inhibition (%)": -6}
{"compound_smiles": "CCN(CC)CCNC(=O)c1c(C)[nH]c(/C=C2\\C(=O)Nc3ccc(F)cc32)c1C", "inhibition (%)": 5.2}
{"compound_smiles": "Cc1ccc(Nc2nccc(N(C)c3ccc4c(C)n(C)nc4c3)n2)cc1S(N)(=O)=O", "inhibition (%)": -5.5}

Here is another molecule to look at.
Sample "CNC(=O)c1cc(Oc2ccc(NC(=O)Nc3ccc(Cl)c(C(F)(F)F)c3)cc2)ccn1" — what was its inhibition?
-7

Hello, the source for this data is the kinase profiling compilation of Christmann-Franck et al. (2016), in case you need it.
